Test system: 616215-338-R-J1-PDC spheroids with HUVEC/MSC, viability
Assay: Anticancer human tumor 616215-338-R-J1-PDC patient-derived colon adenocarcinoma cell line growth inhibition [PI3K]
Details: compound 0.01 µM; active compounds read low
From the text: Combinatorial screen of targeted agents with the PI3K inhibitors inavolisib, alpelisib, duvelisib, and copanlisib in multi-cell type tumor spheroids A high-throughput screen of multi-cell type tumor spheroids was designed to identify active combinations of targeted small molecules and PI3K pathway inhibitors. […] Compounds. […] If the clinical Cmax for an agent had not been determined, the highest concentration tested was 10 microM. […]
Please go through the items and note down their viability, T/C.

- compound: "CCN1CCN(Cc2ccc(Nc3ncc(F)c(-c4cc(F)c5nc(C)n(C(C)C)c5c4)n3)nc2)CC1"
  target-system: "616215-338-R-J1-PDC spheroids with HUVEC/MSC, viability"
  viability, T/C: "92.2% [middle of 4 runs]"
- compound: "Cn1ncnc1[C@H]1c2n[nH]c(=O)c3cc(F)cc(c23)N[C@@H]1c1ccc(F)cc1"
  target-system: "616215-338-R-J1-PDC spheroids with HUVEC/MSC, viability"
  viability, T/C: "102% [middle of 4 runs]"
- compound: "CC(Nc1ccc2c(c1)OCCn1cc(N3C(=O)OCC3C(F)F)nc1-2)C(N)=O (stereo unspecified)"
  target-system: "616215-338-R-J1-PDC spheroids with HUVEC/MSC, viability"
  viability, T/C: "96.4% [middle of 8 runs]"
- compound: "COc1c(OCCCN2CCOCC2)ccc2c3n(c(=NC(=O)c4cnc(N)nc4)nc12)CCN3"
  target-system: "616215-338-R-J1-PDC spheroids with HUVEC/MSC, viability"
  viability, T/C: "96.5% [middle of 8 runs]"
- compound: "CC(C)n1nc(-c2ccc3oc(N)nc3c2)c2c(N)ncnc21"
  target-system: "616215-338-R-J1-PDC spheroids with HUVEC/MSC, viability"
  viability, T/C: "107% [middle of 4 runs]"

### Prompt Specify measured viability, T/C for CC(=O)c1c(C)c2cnc(Nc3ccc(N4CCNCC4)cn3)nc2n(C2CCCC2)c1=O .
### Response 112% [middle of 4 runs]

====

system: 616215-338-R-J1-PDC spheroids with HUVEC/MSC, viability; test: Anticancer human tumor 616215-338-R-J1-PDC cell line growth inhibition [PI3K]; details: second compound 0.316 µM; first compound 1 µM; active compounds read low;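 further: spheroids exposed to agents for seven days before the viability read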
measured-parameter: viability, T/C (%)
Answers are plain numbers, in %.

As a guide, the following entries are already answered.
- molecule: "CCCS(=O)(=O)Nc1ccc(F)c(C(=O)c2c[nH]c3ncc(-c4ccc(Cl)cc4)cc23)c1F + CC(Nc1ccc2c(c1)OCCn1cc(N3C(=O)OCC3C(F)F)nc1-2)C(N)=O"
  unit-text: "%"
  viability, T/C: 102
- molecule: "C#Cc1c(F)ccc2cc(O)cc(-c3ncc4c(N5CC6CCC(C5)N6)nc(OCC56CCCN5CC(F)C6)nc4c3F)c12 (stereo unspecified) + CC(Nc1ccc2c(c1)OCCn1cc(N3C(=O)OCC3C(F)F)nc1-2)C(N)=O"
  unit-text: "%"
  viability, T/C: 87.2
- molecule: "Cn1nccc1Nc1nccc(-c2ccn(C(CO)c3ccc(Cl)c(F)c3)c(=O)c2)n1 (stereo unspecified) + CC(Nc1ccc2c(c1)OCCn1cc(N3C(=O)OCC3C(F)F)nc1-2)C(N)=O"
  unit-text: "%"
  viability, T/C: 52.6

For the 3 molecules below, give their viability, T/C values.
1. CCCS(=O)(=O)Nc1ccc(F)c(C(=O)c2c[nH]c3ncc(-c4ccc(Cl)cc4)cc23)c1F + CC(Nc1ncnc2nc[nH]c12)c1cc2cccc(Cl)c2c(=O)n1-c1ccccc1
2. CC1(C)CCC(CN2CCN(c3ccc(C(=O)NS(=O)(=O)c4ccc(NCC5CCOCC5)c([N+](=O)[O-])c4)c(Oc4cnc5[nH]ccc5c4)c3)CC2)=C(c2ccc(Cl)cc2)C1 + Cc1nc(NC(=O)N2CCCC2C(N)=O)sc1-c1ccnc(C(C)(C)C(F)(F)F)c1
3. CCCS(=O)(=O)Nc1ccc(F)c(C(=O)c2c[nH]c3ncc(-c4ccc(Cl)cc4)cc23)c1F + Cc1nc(NC(=O)N2CCCC2C(N)=O)sc1-c1ccnc(C(C)(C)C(F)(F)F)c1

### Response
[101, 97.7, 85]

Could you tell me viability, T/C for each of these molecules? They are listed below.
1. Cn1ncc(Cl)c1-c1cc(C(=O)NC(CN)Cc2cccc(F)c2)sc1Cl (stereo unspecified) + CC(Nc1ncnc2nc[nH]c12)c1cc2cccc(Cl)c2c(=O)n1-c1ccccc1
2. C#Cc1c(F)ccc2cc(O)cc(-c3ncc4c(N5CC6CCC(C5)N6)nc(OCC56CCCN5CC(F)C6)nc4c3F)c12 (stereo unspecified) + CC(Nc1ncnc2nc[nH]c12)c1cc2cccc(Cl)c2c(=O)n1-c1ccccc1
3. CCCS(=O)(=O)Nc1ccc(F)c(C(=O)c2c[nH]c3ncc(-c4ccc(Cl)cc4)cc23)c1F + COc1c(OCCCN2CCOCC2)ccc2c3n(c(=NC(=O)c4cnc(N)nc4)nc12)CCN3

### Response
[95, 99.8, 38.5]

Please give viability, T/C for each item listed below.
1. C[C@@H](NC(=O)c1ncnc(N)c1Cl)c1ncc(C(=O)Nc2cc(C(F)(F)F)c(Cl)cn2)s1 + CC(Nc1ccc2c(c1)OCCn1cc(N3C(=O)OCC3C(F)F)nc1-2)C(N)=O
2. CC(Cn1ccc(-c2ccc(C#N)c(Cl)c2)n1)NC(=O)c1cc(C(C)O)[nH]n1 (stereo unspecified) + CC(Nc1ncnc2nc[nH]c12)c1cc2cccc(Cl)c2c(=O)n1-c1ccccc1
3. C[C@@H](NC(=O)c1ncnc(N)c1Cl)c1ncc(C(=O)Nc2cc(C(F)(F)F)c(Cl)cn2)s1 + Cc1nc(NC(=O)N2CCCC2C(N)=O)sc1-c1ccnc(C(C)(C)C(F)(F)F)c1
4. CC1(C)CCC(Nc2ncc(C(F)(F)F)c(-c3c[nH]c4c(P(C)(C)=O)c(C#N)ccc34)n2)CN1 (stereo unspecified) + COc1c(OCCCN2CCOCC2)ccc2c3n(c(=NC(=O)c4cnc(N)nc4)nc12)CCN3
5. Cn1ncc(Cl)c1-c1cc(C(=O)NC(CN)Cc2cccc(F)c2)sc1Cl (stereo unspecified) + Cc1nc(NC(=O)N2CCCC2C(N)=O)sc1-c1ccnc(C(C)(C)C(F)(F)F)c1
6. CC(Cn1ccc(-c2ccc(C#N)c(Cl)c2)n1)NC(=O)c1cc(C(C)O)[nH]n1 (stereo unspecified) + COc1c(OCCCN2CCOCC2)ccc2c3n(c(=NC(=O)c4cnc(N)nc4)nc12)CCN3
7. CC1(C)CCC(CN2CCN(c3ccc(C(=O)NS(=O)(=O)c4ccc(NCC5CCOCC5)c([N+](=O)[O-])c4)c(Oc4cnc5[nH]ccc5c4)c3)CC2)=C(c2ccc(Cl)cc2)C1 + CC(Nc1ccc2c(c1)OCCn1cc(N3C(=O)OCC3C(F)F)nc1-2)C(N)=O
8. CCN1CCN(Cc2ccc(Nc3ncc(F)c(-c4cc(F)c5nc(C)n(C(C)C)c5c4)n3)nc2)CC1 + COc1c(OCCCN2CCOCC2)ccc2c3n(c(=NC(=O)c4cnc(N)nc4)nc12)CCN3

### Response
98.6
101
119
18.9
96.8
33.5
102
32
